- Tested on: Plasmodium falciparum
- protocol-summary: Screen against P. falciparum Asexual Blood Stage (ABS), at 5uM
- Type: functional, Dd2
- condition-context: tested at 5 uM
About 2,100 (3.2%) of roughly 65,000 compounds showed an effect of 50% or more. The median lay at about -52%. The list comes from a sample in which strong results are over-represented; it also holds close analogues and randomly drawn compounds.
Simple rule here: INHIBITION less than -40% is Condition met, otherwise Condition not met.

Lab note: confirm whether the reported INHIBITION for this compound is below -40%, equality not counting. compound: Clc1cccc(C(CNc2ncccn2)N2CCOCC2)c1 (stereo not given)
Condition met

Dear reviewer, please state whether Cc1nccc(NCc2cncc3c2CCN(CC2CCOC2)C3)n1 (stereo not given) has INHIBITION strictly beneath -40%.
Condition met

# TODO verify INHIBITION < -40% strictly for this compound: Clc1cccc(C(CNCc2ccccn2)N2CCOCC2)c1 (stereo not given)
Condition not met

Say whether its INHIBITION is strictly beneath -40%. Entry: "O=S(=O)(Cc1ccccc1F)NCCCN1CCCCC1"
Condition not met

Given CCOc1ccc(C(=O)N2CCCC2c2c(C)nn(C)c2Cl)cn1 (stereo not given) , is recorded INHIBITION strictly lower than -40%?
Condition not met

Is INHIBITION of Cc1cnn(CC2CCCN2Cc2nccn2CC(F)(F)F)c1 (stereo not given) strictly below -40%?
Condition not met

Please indicate whether the reported INHIBITION of "CCN(CC)CCn1cnc(-c2ccccc2)c1-c1cnn(CC)c1" is strictly below -40%.
Condition not met

Hello, I'm reviewing records and need to know if INHIBITION of CCn1ccnc1CN1CCCC1Cn1cc(C)cn1 (stereo not given) is below -40%. Could you check?
Condition not met

Bench note: check whether COCCN1CCN(CC2CCCCO2)CC1 (stereo not given) shows INHIBITION below -40%
Condition met

Problem: For the compound "Cc1ccccc1C(=O)N1Cc2c(Cn3ccnc3)nn(C)c2C1" , is INHIBITION under -40%?
Condition not met

Please indicate whether the reported INHIBITION of CCOCC(O)CN1CCN(C(=O)C2CCCCC2)CC1 (stereo not given) is strictly below -40%.
Condition met

Quick check: does O=C(C(CNCc1cccnc1)c1ccccc1)N1CCOCC1 (stereo not given) have INHIBITION under -40%?
Condition met

Determine whether this compound shows INHIBITION lower than -40% (ties excluded): "CC(=O)NCc1nn(C)c2c1CN(Cc1ccsc1)C2"
Condition not met

Field: below-cutoff. Rule: recorded INHIBITION strictly less than -40%. Subject: "COc1cc(C)ccc1S(=O)(=O)N[C@H]1CN(C(C)=O)C[C@@H]1C1CC1"
Condition met

Determine whether this compound shows INHIBITION lower than -40% (ties excluded): "Cc1ccc(CN2C[C@@H](C(=O)Nc3cccnc3)C[C@H]3OCC[C@H]32)o1"
Condition not met

Please state whether INHIBITION is below -40% for Cc1cnn(CC2CCCN2Cc2nccn2C)c1 (stereo not given)
Condition met

Please let me know if OC1(CN2CCCCC2)CCN(Cc2c[nH]c(CC3CCCC3)n2)C1 (stereo not given) shows INHIBITION below -40%.
Condition not met

Record "CN1CCN(CCCNS(=O)(=O)Cc2ccccc2F)CC1" : is its INHIBITION strictly below -40%?
Condition not met

Identify whether the compound "CC(C)c1ncc2c(n1)CN(c1ncnc3[nH]ccc13)CC2" records INHIBITION below -40%.
Condition not met

For "COc1ccc(S(=O)(=O)C2CCN(C(=O)c3cc(C)cs3)CC2)cc1" , is the recorded INHIBITION below the cut-off of -40%?
Condition not met

# TODO verify INHIBITION < -40% strictly for this compound: CC(O)CN1CCC(CNCc2ccccc2Cl)CC1 (stereo not given)
Condition not met

Please check: INHIBITION for Cc1ccc(C(CNCc2cccnc2)N2CCOCC2)s1 (stereo not given) , strictly under -40% or not?
Condition not met

INHIBITION under -40%? Item: "CN1CCCN(C(=O)NCc2ccccc2Cn2cncn2)CC1"
Condition met

Is INHIBITION of "O=C1CN(c2ccc(CNC(=O)Nc3nnc(C4CC4)s3)cc2)CCN1" strictly below -40%?
Condition not met

Field: below-cutoff. Rule: recorded INHIBITION strictly less than -40%. Subject: Clc1cccc(C(CNCc2cccnc2)N2CCOCC2)c1 (stereo not given)
Condition not met

Data provenance is ChEMBL document CHEMBL4513216.
